- Target: T1, SNTG2, Q9NY99
- T1 sequence (Q9NY99 68-166, limits assumed, looked up): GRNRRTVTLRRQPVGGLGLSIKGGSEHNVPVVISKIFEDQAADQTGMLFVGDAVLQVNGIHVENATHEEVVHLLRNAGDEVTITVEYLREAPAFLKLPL
- Procedure Text: holdup assay
- Design: key: below the threshold = too weak to quantify, mostly under pKd 3.1 to 4
- Recorded Conditions: plain residues with an end cap or a label only (N-terminal biotin on a linker: ahx)

Binder | pKd
PKMKLNETSF [SHKBP1, Q8TBC3] | below the threshold
HSATSVHTSV [MTMR1, Q13613] | 3.5
AKPQPVDSWV [ARVCF, O00192] | below the threshold
YNSFLSVTTV [PDZRN3, Q9UPQ7] | 3.81
ADENEQVSAV [RAPGEF6, Q8TEU7] | below the threshold
KEYDDELTFF [USH1C, Q9Y6N9] | below the threshold
SAPATLSSRA [PDLIM2, Q96JY6] | below the threshold
VNENQKEYFF [CNTNAP4, Q9C0A0] | below the threshold
SKKNELFSNL [NHERF1, O14745] | below the threshold
KDECVIATEV [DLL1, O00548] | below the threshold

Values from paper PMC9482650
